Biological target: β-tryptase (Homo sapiens)
Sequence (P20231 31-275): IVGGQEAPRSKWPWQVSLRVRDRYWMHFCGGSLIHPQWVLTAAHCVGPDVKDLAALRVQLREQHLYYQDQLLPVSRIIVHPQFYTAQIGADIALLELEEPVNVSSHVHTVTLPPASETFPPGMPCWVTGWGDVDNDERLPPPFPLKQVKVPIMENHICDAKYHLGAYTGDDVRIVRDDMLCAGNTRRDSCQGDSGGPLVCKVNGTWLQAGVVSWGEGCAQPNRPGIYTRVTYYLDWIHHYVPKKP
Assay: Jump dilution, determination of inhibition type
Type: biochemical
Parameters: purchased EnzoLife Sciences
Conditions: inhibitor at 10 times IC50, 15 min, diluted 10-fold or 100-fold; Rev./Irrev.
parameter: β-tryptase jump dilution result

molecule	parameter	experimental-result
C[C@@H]1NC(=O)N[C@@H]1CCCCCC(=O)NCCOCCOCCOCCn1cc(CCCOC(=O)NC(Cc2ccc(NC(=N)N)cc2)P(=O)(Oc2ccc(Cl)cc2)Oc2ccc(Cl)cc2)nn1 (stereo partly drawn) [54b]	β-tryptase jump dilution result	Rev.
C[C@@H]1NC(=O)N[C@@H]1CCCCCC(=O)NCCOCCOCCOCCn1cc(CCCOC(=O)NC(c2ccc(NC(=N)N)cc2)P(=O)(Oc2ccccc2)Oc2ccccc2)nn1 (stereo partly drawn) [55b]	β-tryptase jump dilution result	Irrev.
C#CCCCOC(=O)NC(c1ccc(NC(=N)N)cc1)P(=O)(Oc1ccccc1)Oc1ccccc1.O=C(O)C(F)(F)F (stereo not drawn) [37b]	β-tryptase jump dilution result	Irrev.
C#CCCCOC(=O)NC(c1ccc(NC(=N)N)cc1)P(=O)(Oc1ccc(Cl)cc1)Oc1ccc(Cl)cc1 (stereo not drawn) [39b]	β-tryptase jump dilution result	Irrev.
C#CCCCOC(=O)NC(CCCNC(=N)N)P(=O)(Oc1ccc(Cl)cc1)Oc1ccc(Cl)cc1 (stereo not drawn) [33b]	β-tryptase jump dilution result	Irrev.
C#CCCCOC(=O)NC(C1CCN(C(=N)N)CC1)P(=O)(Oc1ccccc1)Oc1ccccc1 (stereo not drawn) [41b]	β-tryptase jump dilution result	Irrev.
C#CCCCOC(=O)NC(CCCNC(=N)N)P(=O)(Oc1ccccc1)Oc1ccccc1 (stereo not drawn) [32b]	β-tryptase jump dilution result	Irrev.
C[C@@H]1NC(=O)N[C@@H]1CCCCCC(=O)NCCOCCOCCOCCn1cc(CCCOC(=O)NC(CCCNC(=N)N)P(=O)(Oc2ccccc2)Oc2ccccc2)nn1 (stereo partly drawn) [45b]	β-tryptase jump dilution result	Irrev.
C#CCCCOC(=O)NC(Cc1ccc(NC(=N)N)cc1)P(=O)(Oc1ccc(NC(C)=O)cc1)Oc1ccc(NC(C)=O)cc1 (stereo not drawn) [35b]	β-tryptase jump dilution result	Rev.
C[C@@H]1NC(=O)N[C@@H]1CCCCCC(=O)NCCOCCOCCOCCn1cc(CCCOC(=O)NC(c2ccc(NC(=N)N)cc2)P(=O)(Oc2ccc(Cl)cc2)Oc2ccc(Cl)cc2)nn1 (stereo partly drawn) [57b]	β-tryptase jump dilution result	Irrev.
C#CCCCOC(=O)NC(Cc1ccc(NC(=N)N)cc1)P(=O)(Oc1ccc(Cl)cc1)Oc1ccc(Cl)cc1 (stereo not drawn) [36b]	β-tryptase jump dilution result	Rev.
C[C@@H]1NC(=O)N[C@@H]1CCCCCC(=O)NCCOCCOCCOCCn1cc(CCCOC(=O)NC(CCCNC(=N)N)P(=O)(Oc2ccc(Cl)cc2)Oc2ccc(Cl)cc2)nn1 (stereo partly drawn) [46b]	β-tryptase jump dilution result	Irrev.
C#CCCCOC(=O)NC(c1ccc(NC(=N)N)cc1)P(=O)(Oc1ccc(NC(C)=O)cc1)Oc1ccc(NC(C)=O)cc1 (stereo not drawn) [38b]	β-tryptase jump dilution result	Irrev.
C[C@@H]1NC(=O)N[C@@H]1CCCCCC(=O)NCCOCCOCCOCCn1cc(CCCOC(=O)NC(Cc2ccc(NC(=N)N)cc2)P(=O)(Oc2ccccc2)Oc2ccccc2)nn1 (stereo partly drawn) [50b]	β-tryptase jump dilution result	Rev.
C#CCCCOC(=O)NC(Cc1ccc(NC(=N)N)cc1)P(=O)(Oc1ccccc1)Oc1ccccc1 (stereo not drawn) [34b]	β-tryptase jump dilution result	Rev.
